RUN DESCRIPTION: Enhancement in bioavailability of drugs by the Cuminum cyminum active molecule / fraction
REPORTED CONDITIONS: drug given with Fraction from Cuminum cyminum
PROPERTY NAME: % Enhancement in bioavailability (%)
# number only, unit % dropped from output

Observe how each entry below is paired with its result.
{"columns": ["COMPOUND STRING", "% Enhancement in bioavailability / %"],
 "data": [
  ["CC1(C)S[C@@H]2[C@H](NC(=O)[C@H](N)c3ccc(O)cc3)C(=O)N2[C@H]1C(=O)O", 105],
  ["CN(Cc1cc(Br)cc(Br)c1N)C1CCCCC1", 35],
  ["NNC(=O)c1ccncc1", 30],
  ["Nc1nc2c(ncn2COCCO)c(=O)[nH]1", 110],
  ["Cn1c(=O)c2[nH]cnc2n(C)c1=O", 95],
  ["N[C@@H]1CON=C1O", 110],
  ["C[C@@H]1[C@H](O)[C@@H](C)/C=C/C=C/C=C/C=C/C=C/C=C/C=C/[C@H](O[C@@H]2O[C@H](C)[C@@H](O)[C@H](N)[C@@H]2O)C[C@@H]2O[C@](O)(C[C@@H](O)C[C@@H](O)[C@H](O)CC[C@@H](O)C[C@@H](O)CC(=O)O[C@H]1C)C[C@H](O)[C@H]2C(=O)O", 90]
]}

Below: the item to evaluate.
Challenge: Identify the reported % Enhancement in bioavailability for the following entry. Cc1cn([C@H]2C[C@H](N=[N+]=[N-])[C@@H](CO)O2)c(=O)[nH]c1=O
Response given: 135

====

RUN DESCRIPTION: Enhancement in bioavailability of drugs by the Cuminum cyminum active molecule / fraction
REPORTED CONDITIONS: drug given with Active molecule (3′,5-dihydroxy flavone-7-O-β-D-galacturonide-4′-O-β-D-glucopyranoside)
Entries and their % Enhancement in bioavailability values follow.
# number only, unit % dropped from output

Observe how each entry below is paired with its result.
{"columns": ["COMPOUND STRING", "% Enhancement in bioavailability, %"],
 "data": [
  ["CNC(=C[N+](=O)[O-])NCCSCc1ccc(CN(C)C)o1", 95],
  ["CO/N=C(\\C(=O)N[C@@H]1C(=O)N2C(C(=O)O)=C(CSc3nc(=O)c(O)nn3C)CS[C@H]12)c1csc(N)n1", 75]
]}

Below: the item to evaluate.
Challenge: Identify the reported % Enhancement in bioavailability for the following entry. Cc1cn([C@H]2C[C@H](N=[N+]=[N-])[C@@H](CO)O2)c(=O)[nH]c1=O
Response given: 120

====

RUN DESCRIPTION: Enhancement in bioavailability of drugs by the Cuminum cyminum active molecule / fraction
REPORTED CONDITIONS: drug given with Fraction from Cuminum cyminum
PROPERTY NAME: % Enhancement in bioavailability (%)
# number only, unit % dropped from output

Observe how each entry below is paired with its result.
{"columns": ["COMPOUND", "RECORDED RESULT"],
 "data": [
  ["CN1C(C(=O)Nc2ccccn2)=C(O)c2ccccc2S1(=O)=O", 100],
  ["CN(Cc1cnc2nc(N)nc(N)c2n1)c1ccc(C(=O)N[C@@H](CCC(=O)O)C(=O)O)cc1 [Methotrexate]", 140],
  ["CC[C@H]1OC(=O)[C@H](C)[C@@H](O[C@H]2C[C@@](C)(OC)[C@@H](O)[C@H](C)O2)[C@H](C)[C@@H](O[C@@H]2O[C@H](C)C[C@H](N(C)C)[C@H]2O)[C@](C)(O)C[C@@H](C)CN(C)[C@H](C)[C@@H](O)[C@]1(C)O", 115],
  ["Cc1nnc2n1-c1ccc(Cl)cc1C(c1ccccc1)=NC2", 75],
  ["CCc1cc(C(N)=S)ccn1 [Ethionamide]", 110]
]}

Challenge: Identify the reported % Enhancement in bioavailability for the following entry. CC[C@H]1OC(=O)[C@H](C)[C@@H](O[C@H]2C[C@@](C)(OC)[C@@H](O)[C@H](C)O2)[C@H](C)[C@@H](O[C@@H]2O[C@H](C)C[C@H](N(C)C)[C@H]2O)[C@](C)(O)C[C@@H](C)C(=O)[C@H](C)[C@@H](O)[C@]1(C)O
Response given: 80

====

RUN DESCRIPTION: Enhancement in bioavailability of drugs by the Cuminum cyminum active molecule / fraction
REPORTED CONDITIONS: drug given with Fraction from Cuminum cyminum
Entries and their % Enhancement in bioavailability values follow.
Provide a numeric answer, followed by its unit.

{"columns": ["MOLECULE", "RECORDED RESULT"],
 "data": [
  ["CS(=O)(=O)c1ccc(C2=C(c3ccccc3)C(=O)OC2)cc1", "70%"],
  ["CC(=O)N1CCN(c2ccc(OCC3COC(Cn4ccnc4)(c4ccc(Cl)cc4Cl)O3)cc2)CC1 (stereo not shown)", "85%"],
  ["CO/N=C(\\C(=O)N[C@@H]1C(=O)N2C(C(=O)O)=C(CSc3nc(=O)c(O)nn3C)CS[C@H]12)c1csc(N)n1", "100%"],
  ["O=c1[nH]cc(F)c(=O)[nH]1", "240%"],
  ["Nc1ccc(S(=O)(=O)c2ccc(N)cc2)cc1", "93%"]
]}

Challenge: Identify the reported % Enhancement in bioavailability for the following entry. CC(C)(C)NCC(O)c1ccc(O)c(CO)c1 (stereo not shown)
Response given: 75%

Challenge: Identify the reported % Enhancement in bioavailability for the following entry. NCC[C@H](O)C(=O)N[C@@H]1C[C@H](N)[C@@H](O[C@H]2O[C@H](CN)[C@@H](O)[C@H](O)[C@H]2O)[C@H](O)[C@H]1O[C@H]1O[C@H](CO)[C@@H](O)[C@H](N)[C@H]1O
Response given: 87%

Challenge: Identify the reported % Enhancement in bioavailability for the following entry. CC1=C(C(=O)O)N2C(=O)[C@@H](NC(=O)[C@H](N)c3ccc(O)cc3)[C@H]2SC1
Response given: 120%

Challenge: Identify the reported % Enhancement in bioavailability for the following entry. COc1ccc2[nH]c([S+]([O-])Cc3ncc(C)c(OC)c3C)nc2c1 (stereo not shown)
Response given: 87%

Challenge: Identify the reported % Enhancement in bioavailability for the following entry. C=CC[C@@H]1/C=C(\C)C[C@H](C)C[C@H](OC)[C@H]2O[C@@](O)(C(=O)C(=O)N3CCCC[C@H]3C(=O)O[C@H](/C(C)=C/[C@@H]3CC[C@@H](O)[C@H](OC)C3)[C@H](C)[C@@H](O)CC1=O)[C@H](C)C[C@@H]2OC
Response given: 110%

Challenge: Identify the reported % Enhancement in bioavailability for the following entry. CS(=O)(=O)Nc1ccc([N+](=O)[O-])cc1Oc1ccccc1 [Nimesulide]
Response given: 115%

Challenge: Identify the reported % Enhancement in bioavailability for the following entry. CNC(=C[N+](=O)[O-])NCCSCc1ccc(CN(C)C)o1
Response given: 95%

Challenge: Identify the reported % Enhancement in bioavailability for the following entry. COc1cccc2c1C(=O)c1c(O)c3c(c(O)c1C2=O)C[C@@](O)(C(=O)CO)C[C@@H]3O[C@H]1C[C@H](N)[C@H](O)[C@H](C)O1
Response given: 90%

Challenge: Identify the reported % Enhancement in bioavailability for the following entry. CC(C)NCC(O)COc1cccc2ccccc12 (stereo not shown)
Response given: 140%

Challenge: Identify the reported % Enhancement in bioavailability for the following entry. CN/C(=N/CCSCc1nc[nH]c1C)NC#N
Response given: 70%

Challenge: Identify the reported % Enhancement in bioavailability for the following entry. O=C(CCCN1CCC(O)(c2ccc(Cl)cc2)CC1)c1ccc(F)cc1
Response given: 60%

====

Entries and their % Enhancement in bioavailability values follow.
RUN DESCRIPTION: Enhancement in bioavailability of drugs by the Cuminum cyminum active molecule / fraction
REPORTED CONDITIONS: drug given with Fraction from Cuminum cyminum
# number only, unit % dropped from output

{"columns": ["COMPOUND", "DISPLAY UNIT", "% Enhancement in bioavailability"],
 "data": [
  ["CCOC(=O)C1=C(COCCN)NC(C)=C(C(=O)OC)C1c1ccccc1Cl (stereo not shown)", "%", 130],
  ["CO[C@H]1/C=C/O[C@@]2(C)Oc3c(C)c(O)c4c(O)c(c(/C=N/N5CCN(C)CC5)c(O)c4c3C2=O)NC(=O)/C(C)=C\\C=C\\[C@H](C)[C@H](O)[C@@H](C)[C@@H](O)[C@@H](C)[C@H](OC(C)=O)[C@@H]1C", "%", 170],
  ["CCn1cc(C(=O)O)c(=O)c2cc(F)c(N3CCNCC3)cc21", "%", 55]
]}

Below: the item to evaluate.
Challenge: Identify the reported % Enhancement in bioavailability for the following entry. O=C(O)Cc1ccccc1Nc1c(Cl)cccc1Cl
Response given: 125

====

RUN DESCRIPTION: Enhancement in bioavailability of drugs by the Cuminum cyminum active molecule / fraction
REPORTED CONDITIONS: drug given with Active molecule (3′,5-dihydroxy flavone-7-O-β-D-galacturonide-4′-O-β-D-glucopyranoside)
Everything with % Enhancement in bioavailability lower than 70% is no (0); everything else, including exactly 70%, is yes (1).

Challenge: Confirm if % Enhancement in bioavailability reported for the compound CCn1cc(C(=O)O)c(=O)c2cc(F)c(N3CCNCC3)cc21 [Norfloxacin] is 70% or above.
Response given: no (0)

Challenge: Confirm if % Enhancement in bioavailability reported for the compound Nc1ccc(S(=O)(=O)c2ccc(N)cc2)cc1 [Dapsone] is 70% or above.
Response given: no (0)

Challenge: Confirm if % Enhancement in bioavailability reported for the compound NCC[C@H](O)C(=O)N[C@@H]1C[C@H](N)[C@@H](O[C@H]2O[C@H](CN)[C@@H](O)[C@H](O)[C@H]2O)[C@H](O)[C@H]1O[C@H]1O[C@H](CO)[C@@H](O)[C@H](N)[C@H]1O [Amikacin] is 70% or above.
Response given: yes (1)
